# System: Salmonella typhimurium IFO13245
# Assay type: cell-based
# measurementContext: murium IFO13245, 2 h, pH 7.5
No end group written: not given here.
Kindly state MBC for each of the entries shown.

Challenge: MBC lookup needed for HRRSVAHQQQASLHVKTNQLPSPNTVRQQL-OH [NP4P] , thanks.
Response given: >300 (>300) μg/ml

Challenge: Another: RRRSVGQQNAIPSHIQVNKFFLRKPAKQHI-OH [NP3P]
Response given: 20 µg/mL

Challenge: Another: HRRSVAHQEEASLHVKTDELPSPDTVREQL-OH [P4P]
Response given: >300 (>300) μg/ml

Challenge: Another: RRRFVAEQDAIHSRVSREVPTLSDSV-OH [P1P]
Response given: > 300 µg/mL

Challenge: Another: RRRSVGEEDAIPSHIEVNKFFLRKPAKEHI-OH [P3P]
Response given: > 300 µg/mL

Challenge: Another: RRRFVAQQNAIHSRVSRQVPTLSNSV-OH [NP1P]
Response given: 30 µg/mL

====

# System: Human erythrocytes
# experimentSummary: Hemolytic assay
# Format: cell-based
# measurementContext: peptide 300 μg/mL, 10 mM Tris-HCl pH 7.5 with 308 mM sucrose, 0.5 h, A540, pure water = 100% lysis
# Protocol: Hemolytic assay was performed as previously described. Human erythrocytes were used. Hemolysis was estimated as the leakage of haemoglobin. The erythrocytes were washed and resuspended in 10 mM Tris-HCl, pH 7.5, containing 308 mM sucrose. The erythrocyte suspension was diluted by 30%. The diluted suspension was mixed with the equal volume of peptide solution dissolved in the same buffer. […] The supernatant was diluted, and A540 was measured. […]
No end group written: not given here.
propertyMeasured: Hemolytic activity (%)
Number only, in %; omit the unit.

Challenge: Report Hemolytic activity (%) for RRRFVAQQNAIHSRVSRQVPTLSNSV-OH [NP1P] tested on Human erythrocytes.
Response given: 1.32

Challenge: Another: RRRSVGEEDAIPSHIEVNKFFLRKPAKEHI-OH [P3P]
Response given: 1.69

Challenge: Another: RRRSVGQQNAIPSHIQVNKFFLRKPAKQHI-OH [NP3P]
Response given: 2.61

Challenge: Another: RRRFVAEQDAIHSRVSREVPTLSDSV-OH [P1P]
Response given: 0.00

====

# Test system: Staphylococcus aureus IFO12732
# Assay type: cell-based
# measurementContext: IFO12732, 2 h, pH 7.5
No end group written: not given here.
Kindly state MBC for each of the entries shown.

Challenge: MBC lookup needed for RRRFVAEQDAIHSRVSREVPTLSDSV-OH [P1P] , thanks.
Response given: > 300 µg/mL

Challenge: Another: HRRSVAHQQQASLHVKTNQLPSPNTVRQQL-OH [NP4P]
Response given: >300 (>300) μg/ml

Challenge: Another: RRRSVGEEDAIPSHIEVNKFFLRKPAKEHI-OH [P3P]
Response given: > 300 µg/mL

Challenge: Another: RRRFVAQQNAIHSRVSRQVPTLSNSV-OH [NP1P]
Response given: 10 µg/mL

Challenge: Another: RRRSVGQQNAIPSHIQVNKFFLRKPAKQHI-OH [NP3P]
Response given: 5 µg/mL

Challenge: Another: HRRSVAHQEEASLHVKTDELPSPDTVREQL-OH [P4P]
Response given: >300 (>300) μg/ml

====

# System: Pseudomonas aeruginosa IFO3899
# Type: cell-based
# measurementContext: IFO3899, 2 h, pH 7.5
# Protocol: Microbicidal assay was performed as previously described. A low ionic strength condition was used to detect bactericidal activity with higher sensitivity. Briefly, each microbial strain in the mid-exponential phase was suspended in 10 mM Tris/HCl, pH 7.5. The microbial suspension was mixed with peptides. […] The numbers of colonies were counted, and a plot of peptide concentration vs colony number was created.
No end group written: not given here.
Kindly state MBC for each of the entries shown.
Number only, in µg/mL; omit the unit.

Challenge: MBC lookup needed for RRRSVGEEDAIPSHIEVNKFFLRKPAKEHI-OH [P3P] , thanks.
Response given: 70

Challenge: Another: RRRSVGQQNAIPSHIQVNKFFLRKPAKQHI-OH [NP3P]
Response given: 20

Challenge: Another: RRRFVAQQNAIHSRVSRQVPTLSNSV-OH [NP1P]
Response given: 20

====

# System: Pseudomonas aeruginosa IFO3899
# Format: cell-based
# measurementContext: IFO3899, 2 h, pH 7.5
No end group written: not given here.
Kindly state MBC for each of the entries shown.

Challenge: MBC lookup needed for HRRSVAHQQQASLHVKTNQLPSPNTVRQQL-OH [NP4P] , thanks.
Response given: >300 (>300) μg/ml

Challenge: Another: RRRFVAEQDAIHSRVSREVPTLSDSV-OH [P1P]
Response given: > 300 µg/mL

Challenge: Another: HRRSVAHQEEASLHVKTDELPSPDTVREQL-OH [P4P]
Response given: >300 (>300) μg/ml
